GI50: recorded values
tested on: DMS-273; assay: NCI tumour cell line growth inhibition, 48 h
Active and inactive are the calls of the source. No stated cut-off is given here; in the data, active = GI50 up to about 1.1 µM and inactive = higher.

# compound, GI50
measured = [
    ("O=C(Nc1cc(Cl)c(Cl)cc1Cl)C(=O)C(C(=O)c1ccccc1)C1OC(=O)c2ccccc21 (stereo unspecified)", "> 100 µM (inactive)"),
    ("CCCc1c(C(=O)OCC)[nH]c(-c2ccc(-c3[nH]c(C(=O)OCC)c(CCC)c3C(=O)OCC)s2)c1C(=O)OCC", "30.7 µM (inactive)"),
    ("O=C1CCCCC12CCC/C2=N\\O (stereo unspecified)", "> 100 µM (inactive)"),
    ("COC1=C(OC)C(=O)c2cc(SC)c(=O)c(SC)cc2C1=O", "25.5 µM (inactive)"),
    ("CCSC1=C(C)N(/C=N/C(C)(C)C)CC1", "> 100 µM (inactive)"),
    ("Nc1nc(SCC(=O)c2ccccc2)c2[nH]cnc2n1", "> 100 µM (inactive)"),
    ("O=C(O)CC(NC(=O)CP(=O)(O)O)C(=O)O (stereo unspecified)", "119 µM (inactive)"),
    ("N#CC1(N2CCCC2)CCC2(CC1)OCCO2", "> 10 µM (inactive)"),
    ("COc1ccc(Nc2nc3cc(C(F)(F)F)ccc3nc2-c2ccccc2)cc1OC", "6.08 µM (inactive)"),
    ("CC(C)OP(=O)(OC(C)C)c1ncn(-c2ccc([N+](=O)[O-])cc2)n1", "> 100 µM (inactive)"),
    ("CN1CCc2[nH]c3ccccc3c2C1", "> 100 µM (inactive)"),
]

---

tested on: SNB-19; assay: NCI tumour cell line growth inhibition, 48 h
Counter-ions that a name gives are not always drawn. The source made the active and inactive calls. Cut-off read from the data, not from the text of the source: active = GI50 up to about 1.1 µM and inactive = higher.
Outcome codes: Y (active), N (inactive)

# molecule, assigned-label
records = [
    ("CSc1cc(-c2ccccn2)nc(-c2ccccn2)c1", "Y"),
    ("COC1=C(OC)C(=O)c2cc(SC)c(=O)c(SC)cc2C1=O", "N"),
    ("CCCCn1c(C)c(C(=O)OCC)c2cc(OCc3ccc(C(=O)Nn4c(C)ccc4C)cc3)c(Br)cc21", "N"),
    ("Cc1cc(C)c(NC(=O)/C=C/c2ccccc2)c(C)c1", "N"),
    ("Cc1c2ccncc2c(C)c2c1[nH]c1ccc(OC(C)(C)C)cc12", "N"),
    ("CC(C)(C)OC(=O)C1/C(=C/CBr)CN1C(=O)OC(C)(C)C (stereo unspecified)", "N"),
    ("CC1=NCCc2c1[nH]c1cc(O)ccc21 [HARMALOL HYDROCHLORIDE]", "N"),
    ("C[C@]12CC[C@H]3[C@@H](CC=C4C[C@@H](O)CC[C@@]43C)[C@@H]1C/C(=C\\c1ccc([N+](=O)[O-])cc1)[C@@H]2O", "N"),
    ("CCOC(=O)c1cc2c(OC)cc(OC)cc2oc1=O", "N"),
    ("COc1ccc(Nc2nc(NNC(=O)Cc3ccccc3)nc(NNC(=O)c3ccncc3)n2)cc1", "N"),
    ("CCCCCCCCCCCc1c(O)c(=O)c2c(oc3c(=O)c(CCCCCCCCCCC)c(O)c(=O)c3n2-c2ccc(N(C)C)cc2)c1=O", "N"),
    ("CCN(CC)Cc1ccc(Nc2c3ccccc3nc3ccccc23)cc1", "N"),
    ("CCOc1ccnc2c(OC)c(C)c3nc4ccccc4nc3c12", "N"),
    ("Cn1c([N+](=O)[O-])cnc1CN1CCN(CCO)CC1", "N"),
    ("CCOC(=O)c1[nH]c2cccc3c2c1CC[C@H](NC(=O)C(F)(F)F)C3=O", "N"),
    ("COc1cc2c(/C=C3/C(=O)Nc4cccc(Cl)c43)c(Cl)[nH]c2cc1C", "N"),
    ("NC(CCCNCc1ccccc1)C(=O)O (stereo unspecified)", "N"),
    ("CC(=O)Nc1sc(Br)cc1S(=O)(=O)c1ccc(Cl)cc1", "N"),
    ("COc1cccc(C(C#N)NC23CC4CC(CC(C4)C2)C3)c1 (stereo unspecified)", "N"),
    ("Cc1c(C(=O)C/C(=N/NC(=O)c2ccccc2)C(=O)Nc2ccc(Cl)cc2)[n+]([O-])c2ccccc2[n+]1[O-]", "N"),
    ("Cc1[nH]c2ncn(/N=C/c3ccccc3)c(=N)c2c1Cc1ccccc1", "N"),
]

---

tested on: NCI/ADR-RES; experiment: NCI tumour cell line growth inhibition, 48 h
Active and inactive are the calls of the source. Cut-off read from the data, not from the text of the source: active = GI50 up to about 1.1 µM and inactive = higher.
GI50: recorded values
assay-readout: GI50

# compound, target-or-system, value-reported
rows = [
    ("C1=C(c2ccccc2)SC=C(c2ccccc2)S1", "NCI/ADR-RES", "19.9 µM (inactive)"),
    ("CN(C)CCNC(=O)c1cccc2nc3cccc(F)c3nc12", "NCI/ADR-RES", "1.39 µM (inactive)"),
    ("CCCCC1Cc2cc(OC)ccc2-c2nc3cc(OC)ccc3n21.CCCCC1Cc2cc(OC)ccc2-c2nc3ccc(OC)cc3n21 (stereo not given)", "NCI/ADR-RES", "13.2 µM (inactive)"),
    ("COC(=O)C12CCC(C(=O)OC)(Cc3c(c4ccccc4n3S(=O)(=O)c3ccccc3)C1)C2=O (stereo not given)", "NCI/ADR-RES", "16.7 µM (inactive)"),
    ("Cc1cc(C)c(NC(=O)/C=C/c2ccccc2)c(C)c1", "NCI/ADR-RES", "29.3 µM (inactive)"),
]

---

system: SW-620; test: NCI tumour cell line growth inhibition, 48 h
Active and inactive are the calls of the source. Rule as the data show it: active = GI50 up to about 1.1 µM and inactive = higher.

# molecule, GI50
records = [
    ("NC1c2ccccc2Nc2ccccc21", "3.66 µM (inactive)"),
    ("C1=C2C3=[N+](CCCCC3)CC2Cc2ccsc21 (configuration not stated)", "93.5 µM (inactive)"),
    ("COc1ccc(O[C@H](COCc2ccccc2)C[C@@H]2COC(C)(C)O2)cc1", "> 100 µM (inactive)"),
    ("COc1ccc(C2SCC(=O)N2NC(=O)C(C)Oc2ccccc2C)cc1 (configuration not stated)", "> 100 µM (inactive)"),
    ("CSCSCC(CO)NC(=O)/C(C)=C\\c1c(C)[nH]c(=O)[nH]c1=O (configuration not stated)", "237 µM (inactive)"),
    ("CCCCc1c2c(nc3c1CCC/C3=C\\c1ccccc1)C(=O)C(CN(C)C)CC2 (configuration not stated)", "10.4 µM (inactive)"),
    ("CCC(C#N)N(Cc1cccc(CN(C(C)=O)C(C#N)CC)c1)C(C)=O (configuration not stated)", "> 100 µM (inactive)"),
    ("CC1(CC(=O)O)OC2CCCCCC2O1.NCc1ccccc1 (configuration not stated)", "> 100 µM (inactive)"),
    ("O=c1[nH]nc(Cc2ccccc2)n1/N=C/c1ccncc1", "> 100 µM (inactive)"),
    ("O=C(O)c1cncc(C(=O)O)c1", "> 100 µM (inactive)"),
    ("CC1(C)CC(=O)C(CCC(=O)/C=C/c2ccccc2)C(=O)C1", "> 100 µM (inactive)"),
    ("N#Cc1c(-c2cccc(Cl)c2)cc(-c2ccc(Cl)cc2)nc1N", "17.5 µM (inactive)"),
]

---

tested on: SK-MEL-28; test: NCI tumour cell line growth inhibition, 48 h
Active and inactive are the calls of the source. Rule as the data show it: active = GI50 up to about 1.1 µM and inactive = higher.

# compound, GI50
records = [
    ("Cc1ccc(-c2cn3c(nc4ccccc43)c(C)n2)cc1", "58.2 µM (inactive)"),
    ("C1=c2ccccc2=C2C(=C(c3ccccc3)C(c3ccccc3)=NN2c2ccccc2)S1", "> 100 µM (inactive)"),
    ("CC1CCCC2=C1C(c1ccc(Cl)cc1)n1c(s/c(=C\\c3ccc(Cl)cc3)c1=O)=N2 (stereo not given)", "> 100 µM (inactive)"),
    ("CC1=N/C(=C\\c2ccc([N+](=O)[O-])cc2)C(=O)O1", "> 100 µM (inactive)"),
    ("CCOc1ccccc1NC(=O)C1=C(C)NC(C)=C(C(=O)Nc2ccccc2OCC)C1c1ccc(NC(C)=O)cc1", "73.8 µM (inactive)"),
    ("O=C(Nc1nnc(-c2ccc(Cl)cc2)o1)C(SC(=S)N1CCOCC1)c1ccccc1 (stereo not given)", "23.2 µM (inactive)"),
    ("O=C(O)CCSc1ncnc2[nH]cnc12", "> 100 µM (inactive)"),
    ("Nc1nc(Cl)c2ncn(CCCC(c3ccccc3)P(=O)(O)O)c2n1 (stereo not given)", "> 100 µM (inactive)"),
    ("CCOC(=O)CCC(NC(=O)c1ccc(Nc2nc3ccccc3n3cccc23)cc1)C(=O)OCC (stereo not given)", "47.6 µM (inactive)"),
    ("N#Cc1nc(/C=C/c2cccnc2)oc1N", "> 100 µM (inactive)"),
]
